# experimental_details: clinical
# run_parameters: human, in vivo, maximum Tmax value in patients taking PPI

compound | Tmax
Cc1c(NS(=O)(=O)c2c(Cl)cc(-c3ccnc(N4CCNCC4)c3)cc2Cl)c(CC(C)C)nn1C [zelenirstat] | ~8 h

----------
# experimental_details: clinical
# run_parameters: human, in vivo, po, 140 mg, t1/2 (h) (mean, SD)

smiles_notation | half-life, h
Cc1c(NS(=O)(=O)c2c(Cl)cc(-c3ccnc(N4CCNCC4)c3)cc2Cl)c(CC(C)C)nn1C | 7.2

----------
# experimental_details: clinical
# run_parameters: human, in vivo, po, 100 mg, Tmax (h) (median, range)

smiles_notation | Tmax / h
Cc1c(NS(=O)(=O)c2c(Cl)cc(-c3ccnc(N4CCNCC4)c3)cc2Cl)c(CC(C)C)nn1C | 4
